IC50 values, listed per item
assayTarget: recombinant human integrin αvβ6 (Homo sapiens (Human), UniProt P06756+P18564)
Sequence (P06756 31-992): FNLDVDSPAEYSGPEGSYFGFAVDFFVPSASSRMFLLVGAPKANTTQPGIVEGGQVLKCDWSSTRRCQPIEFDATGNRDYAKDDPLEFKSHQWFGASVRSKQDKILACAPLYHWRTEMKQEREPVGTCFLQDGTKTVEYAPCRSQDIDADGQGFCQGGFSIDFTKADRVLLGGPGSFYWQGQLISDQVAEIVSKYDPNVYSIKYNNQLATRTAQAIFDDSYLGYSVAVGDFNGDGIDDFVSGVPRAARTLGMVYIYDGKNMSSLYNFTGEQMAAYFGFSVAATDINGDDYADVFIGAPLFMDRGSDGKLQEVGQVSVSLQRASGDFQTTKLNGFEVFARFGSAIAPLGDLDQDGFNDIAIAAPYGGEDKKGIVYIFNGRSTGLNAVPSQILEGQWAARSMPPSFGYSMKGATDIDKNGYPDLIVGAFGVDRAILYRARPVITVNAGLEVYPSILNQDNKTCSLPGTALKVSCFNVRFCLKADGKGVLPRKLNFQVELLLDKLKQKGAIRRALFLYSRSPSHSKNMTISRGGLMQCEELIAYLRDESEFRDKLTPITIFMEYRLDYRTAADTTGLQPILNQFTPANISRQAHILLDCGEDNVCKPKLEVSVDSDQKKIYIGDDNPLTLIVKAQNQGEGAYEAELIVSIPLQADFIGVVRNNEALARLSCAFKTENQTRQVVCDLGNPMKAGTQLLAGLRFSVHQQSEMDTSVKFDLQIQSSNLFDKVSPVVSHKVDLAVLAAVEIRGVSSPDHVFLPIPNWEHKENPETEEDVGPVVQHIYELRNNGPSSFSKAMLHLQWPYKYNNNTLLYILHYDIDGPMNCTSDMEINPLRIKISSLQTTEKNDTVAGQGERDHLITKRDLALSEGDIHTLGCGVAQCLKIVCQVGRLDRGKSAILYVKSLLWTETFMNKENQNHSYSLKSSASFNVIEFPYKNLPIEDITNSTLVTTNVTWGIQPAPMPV
Sequence (P18564 22-707): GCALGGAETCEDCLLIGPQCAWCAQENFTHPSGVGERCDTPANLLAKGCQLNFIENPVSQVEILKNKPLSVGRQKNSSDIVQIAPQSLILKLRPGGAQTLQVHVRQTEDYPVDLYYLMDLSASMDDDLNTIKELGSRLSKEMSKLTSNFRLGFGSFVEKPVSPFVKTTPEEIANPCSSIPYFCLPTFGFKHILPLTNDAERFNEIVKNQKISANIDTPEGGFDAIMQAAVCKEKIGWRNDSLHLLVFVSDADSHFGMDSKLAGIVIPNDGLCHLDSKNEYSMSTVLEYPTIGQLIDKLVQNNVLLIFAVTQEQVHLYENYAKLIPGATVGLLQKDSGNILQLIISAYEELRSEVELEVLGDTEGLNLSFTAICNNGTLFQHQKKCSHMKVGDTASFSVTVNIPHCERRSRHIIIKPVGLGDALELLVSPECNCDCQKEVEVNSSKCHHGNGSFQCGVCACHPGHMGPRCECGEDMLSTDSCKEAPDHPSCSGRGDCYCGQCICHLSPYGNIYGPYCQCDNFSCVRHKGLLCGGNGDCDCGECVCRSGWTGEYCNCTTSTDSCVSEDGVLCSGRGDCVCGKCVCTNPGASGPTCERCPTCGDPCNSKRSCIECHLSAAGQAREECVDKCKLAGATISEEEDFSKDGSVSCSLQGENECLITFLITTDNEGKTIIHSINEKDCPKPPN
measurementNotes: Solid phase integrin αvβ6 binding assay
conditionDescription: plate-coated integrin; recombinant TGFβ1 LAP 0.67 ug/ml as ligand; 2 hours at 25° C.; read-out: αvβ6 Inhibition IC50 (nM) - range

>>> recordedvalue("CC(C)(C)OC(=O)N[C@@H](CCN1CC(CCc2ccc3c(n2)NCCC3)CC(F)(F)C1)C(=O)O (some centres unmarked)")
"250 to 1000 nM"
>>> recordedvalue("CC(C)(O)CC1NCCC1C(=O)N[C@@H](CCN1CC(OCCc2ccc3c(n2)NCCC3)C1)C(=O)O (some centres unmarked)")
"250 to 1000 nM"
>>> recordedvalue("Cn1cc(C(=O)N[C@@H](CCN2CC[C@@H](CCc3ccc4c(n3)NCCC4)C2)C(=O)O)cn1")
"50 to 250 nM"
>>> recordedvalue("O=C(O)[C@H](CCN1CC[C@@H](CCc2ccc3c(n2)NCCC3)C1)NC(=O)[C@@H]1CCCCN1Cc1ccccc1")
"50 to 250 nM"

Challenge: Fill in: IC50 of O=C(N[C@@H](CCN1CC[C@@H](CCc2ccc3c(n2)NCCC3)C1)C(=O)O)c1ccccn1 [Compound 17a] is ___
Response given: 50 to 250 nM

Challenge: What do we get for O=C(N[C@@H](CCN1CC(CCc2ccc3c(n2)NCCC3)C1)C(=O)O)C1CCCN1Cc1ccccc1 (some centres unmarked) ?
Response given: > 1000 nM

Challenge: What do we get for O=C(N[C@@H](CCN1CC[C@@H](CCc2ccc3c(n2)NCCC3)C1)C(=O)O)c1cccc(C(F)(F)F)c1 ?
Response given: < 50 nM

Challenge: What do we get for Cn1ncc2ccc(C(=O)N[C@@H](CCN3CCC[C@@](F)(CCc4ccc5c(n4)NCCC5)C3)C(=O)O)cc21 ?
Response given: 50 to 250 nM

Challenge: What do we get for O=C(N[C@@H](CCN1CC[C@@H](CCc2ccc3c(n2)NCCC3)C1)C(=O)O)c1ccc2cnn(C(F)F)c2c1 [Compound 29a] ?
Response given: < 50 nM

Challenge: What do we get for O=C(N[C@@H](CCN1CCC[C@@](F)(CCc2ccc3c(n2)NCCC3)C1)C(=O)O)c1cc(F)cc(C(F)(F)F)c1 ?
Response given: 50 to 250 nM

---

assayTarget: recombinant human integrin αvβ6 (Homo sapiens (Human), UniProt P06756+P18564)
measurementNotes: Solid phase integrin αvβ6 binding assay
conditionDescription: plate-coated integrin; recombinant TGFβ1 LAP 0.67 ug/ml as ligand; 2 hours at 25° C.; read-out: αvβ6 Inhibition IC50 (nM) - range
Description: Example B1—Solid Phase Integrin αvβ6 Binding Assay Microplates were coated with recombinant human integrin αvβ6 (2 ug/ml) in PBS (100 ul/well 25° C., overnight). The coating solution was removed, washed with wash buffer (0.05% Tween 20; 0.5 mM MnCl2; in 1×TBS). […] Bound antibody was detected by peroxidase-conjugated streptavidin. The IC50 values for testing compounds were calculated by a four-parameter logistic regression. […]
experimentalReadout: IC50

The cases that follow already have their IC50 on record.
>>> recordedvalue("O=C(O)[C@H](CCN1CC(OCCc2ccc3c(n2)NCCC3)C1)NC(=O)[C@@H]1CCCN1c1ccccc1 [Compound 127]")
"< 50 nM"
>>> recordedvalue("O=C(N[C@@H](CCN1CC[C@@H](CCc2ccc3c(n2)NCCC3)C1)C(=O)O)c1cccc(F)c1F [Compound 67]")
"< 50 nM"
>>> recordedvalue("O=C(N[C@@H](CCN1CC(CCc2ccc3c(n2)NCCC3)C1)C(=O)O)c1c(Cl)cccc1Cl [Compound 139]")
"250 to 1000 nM"
>>> recordedvalue("Cn1nc(-c2ccccc2)c2cccc(C(=O)N[C@@H](CCN3CC[C@@H](CCc4ccc5c(n4)NCCC5)C3)C(=O)O)c21 [Compound 82]")
"< 50 nM"
>>> recordedvalue("O=C(O)[C@H](CCN1CC[C@@H](CCc2ccc3c(n2)NCCC3)C1)NC(=O)[C@@H]1CCCN1Cc1cccnc1 [Compound 99]")
"< 50 nM"

Challenge: Fill in: IC50 of O=C(N[C@@H](CCN1CC[C@@H](CCc2ccc3c(n2)NCCC3)C1)C(=O)O)c1cnccn1 [Compound 50] is ___
Response given: < 50 nM

Challenge: What do we get for O=C(N[C@@H](CCN1CCC[C@](F)(CCc2ccc3c(n2)NCCC3)C1)C(=O)O)C1CCC(F)(F)CC1 [Compound 109] ?
Response given: 50 to 250 nM

Challenge: What do we get for Cc1cc(C)n(-c2cccc(C(=O)N[C@@H](CCN3CC[C@@H](CCc4ccc5c(n4)NCCC5)C3)C(=O)O)c2)n1 [Compound 13a] ?
Response given: < 50 nM

Challenge: What do we get for O=C(N[C@@H](CCN1CC[C@@H](OCCc2ccc3c(n2)NCCC3)C1)C(=O)O)C1CCOCC1 [Compound 117] ?
Response given: 250 to 1000 nM

Challenge: What do we get for CC(C)(Cc1ccccc1)C(=O)N[C@@H](CCN1CC[C@@H](OCCc2ccc3c(n2)NCCC3)C1)C(=O)O [Compound 119] ?
Response given: 250 to 1000 nM

Challenge: What do we get for O=C(N[C@@H](CCN1CC(CCc2ccc3c(n2)NCCC3)C(F)(F)C1)C(=O)O)c1ccccc1 (stereo partly drawn) [Compound 39] ?
Response given: 50 to 250 nM

Challenge: What do we get for O=C(N[C@@H](CCN1CC[C@@H](CCc2ccc3c(n2)NCCC3)C1)C(=O)O)c1cccc2cn[nH]c12 [Compound 26a] ?
Response given: < 50 nM

Challenge: What do we get for Cc1cccc(C)c1C(=O)NC(CCN1CC[C@@H](CCc2ccc3c(n2)NCCC3)C1)C(=O)O (stereo partly drawn) [4a and 4c] ?
Response given: < 50 nM

Challenge: What do we get for O=C(NC(CCN1CC[C@@H](CCc2ccc3c(n2)NCCC3)C1)C(=O)O)c1ccccc1 (stereo partly drawn) [3a and 3c] ?
Response given: < 50 nM

Challenge: What do we get for O=C(N[C@@H](CCN1CC[C@@H](CCc2ccc3c(n2)NCCC3)C1)C(=O)O)c1ccc(N2CCOCC2)cc1 [Compound 16a] ?
Response given: > 1000 nM

---

assayTarget: recombinant human integrin αvβ6 (Homo sapiens (Human), UniProt P06756+P18564)
measurementNotes: Solid phase integrin αvβ6 binding assay
conditionDescription: plate-coated integrin; recombinant TGFβ1 LAP 0.67 ug/ml as ligand; 2 hours at 25° C.; read-out: αvβ6 Inhibition IC50 (nM) - range
experimentalReadout: IC50

The cases that follow already have their IC50 on record.
>>> recordedvalue("CC(C)(C)OC(=O)N[C@@H](CCN1CC[C@@H](OCc2ccc3c(n2)NCCC3)C1)C(=O)O [Compound 111]")
"> 1000 nM"
>>> recordedvalue("CC(C)(C)C(=O)N1CCC[C@@H](C(=O)N[C@@H](CCN2CC[C@@H](CCc3ccc4c(n3)NCCC4)C2)C(=O)O)C1 [Compound 79]")
"< 50 nM"
>>> recordedvalue("O=C(N[C@@H](CCN1CC[C@@H](OCCc2ccc3c(n2)NCCC3)C1)C(=O)O)[C@@H]1CCN(c2ccccn2)C1 [Compound 125]")
"250 to 1000 nM"

Challenge: Fill in: IC50 of O=C(N[C@H](CCN1CC[C@@H](CCc2ccc3c(n2)NCCC3)C1)C(=O)O)c1cccc(-c2ncco2)c1 [Compound 88] is ___
Response given: < 50 nM

Challenge: What do we get for CCC(CC)C(=O)N[C@@H](CCN1CC[C@@H](CCc2ccc3c(n2)NCCC3)C1)C(=O)O [Compound 95] ?
Response given: < 50 nM

Challenge: What do we get for O=C(N[C@@H](CCN1CC[C@@H](CCc2ccc3c(n2)NCCC3)C1)C(=O)O)c1cccc2[nH]ncc12 [Compound 35] ?
Response given: < 50 nM

Challenge: What do we get for O=C(N[C@@H](CCN1CC[C@@H](CCc2ccc3c(n2)NCCC3)C1)C(=O)O)c1ccccc1N1CCOCC1 [Compound 14a] ?
Response given: 50 to 250 nM

Challenge: What do we get for Cn1nccc1-c1cccc(C(=O)N[C@@H](CCN2CC[C@@H](CCc3ccc4c(n3)NCCC4)C2)C(=O)O)c1 [Compound 57] ?
Response given: < 50 nM

Challenge: What do we get for O=C(O)[C@H](CCN1CC(CCc2ccc3c(n2)NCCC3)C1)NC(=O)[C@@H]1CCCN1c1ccccc1 [Compound 129] ?
Response given: 250 to 1000 nM

Challenge: What do we get for O=C(N[C@@H](CCN1CC[C@@H](CCc2ccc3c(n2)NCCC3)C1)C(=O)O)c1cc(F)cc(C(F)(F)F)c1 [Compound 76] ?
Response given: < 50 nM

Challenge: What do we get for O=C(N[C@@H](CCN1CCC[C@@](F)(CCc2ccc3c(n2)NCCC3)C1)C(=O)O)c1cc(F)cc(F)c1 [Compound 97] ?
Response given: 50 to 250 nM

Challenge: What do we get for CC(C)(O)CN1CCC[C@H]1C(=O)N[C@@H](CCN1CC[C@@H](CCc2ccc3c(n2)NCCC3)C1)C(=O)O [Compound 77] ?
Response given: < 50 nM

Challenge: What do we get for O=C(N[C@@H](CCN1CC[C@@H](CCc2ccc3c(n2)NCCC3)C1)C(=O)O)c1cc(OC(F)(F)F)ccc1Cl [Compound 11a] ?
Response given: < 50 nM

Challenge: What do we get for O=C(N[C@@H](CCN1CCC[C@@](F)(CCc2ccc3c(n2)NCCC3)C1)C(=O)O)C1CCC(F)(F)CC1 [Compound 107] ?
Response given: 50 to 250 nM
